Assay: Inhibition of LTB4 production in calcium ionophore A23187 treated human leukocytes
Format: functional, cell-based
Details: Leukocyte
Note to self: use satisfied only for IC50 readings below 20 nM; a reading exactly at 20 nM still gets not satisfied.

Solved entries:
smiles_str: CC(=O)N1CCC[C@H]1COc1ccc2c(c1)c(SC(C)(C)C)c(CC(C)(C)C(=O)O)n2Cc1ccc(Cl)cc1
group_label: satisfied

smiles_str: CCC(=O)N1CCC[C@H]1COc1ccc2c(c1)c(SC(C)(C)C)c(CC(C)(C)C(=O)O)n2Cc1ccc(Cl)cc1
group_label: satisfied

Ask: Is IC50 strictly under 20 nM for the entry CC(C)C(=O)N1CCC[C@H]1COc1ccc2c(c1)c(SC(C)(C)C)c(CC(C)(C)C(=O)O)n2Cc1ccc(Cl)cc1 ?
Reply: not satisfied

Ask: Please check: IC50 for CC(C)(C)Sc1c(CC(C)(C)C(=O)O)n(Cc2ccc(Cl)cc2)c2ccc(OC[C@@H]3CCCN3S(C)(=O)=O)cc12 , strictly under 20 nM or not?
Reply: not satisfied

Ask: Answer whether the compound CC(=O)N1c2ccccc2C[C@H]1COc1ccc2c(c1)c(C(=O)C(C)C)c(CC(C)(C)C(=O)O)n2Cc1ccc(Cl)cc1 has IC50 strictly less than 20 nM
Reply: not satisfied

Ask: Would you kindly verify if IC50 of CC(C)(C)Sc1c(CC(C)(C)C(=O)O)n(Cc2ccc(Cl)cc2)c2ccc(OCC(N)=O)cc12 is strictly less than 20 nM?
Reply: not satisfied

Ask: # TODO verify IC50 < 20 nM strictly for this compound: COc1nc(-c2ccc(Cn3c(CC(C)(C)C(=O)O)c(SC(C)(C)C)c4cc(OC[C@@H]5Cc6ccccc6N5C(C)=O)ccc43)cc2)cs1
Reply: satisfied
